Kindly supply the reported GI50 values for the records listed here.
# Experiment Notes: Growth inhibition of human A375P cells after 24 hrs by MTT assay
# Format: functional

Worked cases, answers included:
* O=C1CC(c2cccc(NC(=O)c3cc(N4CCOCC4)cc(C(F)(F)F)c3)c2)=Nc2cnn(Cc3ccccc3)c2N1 | > 30 µM
* COc1ccc(Cn2ncc3c2NC(=O)CC(c2cccc(NC(=O)Nc4ccc(Cl)c(Cl)c4)c2)=N3)cc1 | 3.86 µM
* Cc1cn(-c2cc(C(=O)Nc3ccc(C4=Nc5cnn(Cc6ccccc6)c5NC(=O)C4)cc3)cc(C(F)(F)F)c2)cn1 | > 30 µM
* O=C1CC(c2ccc(NC(=O)c3ccc(Cl)c(C(F)(F)F)c3)cc2)=Nc2cnn(Cc3ccccc3)c2N1 | 13.1 µM
* O=C1CC(c2cccc(NC(=O)Nc3ccc(Cl)c(C(F)(F)F)c3)c2)=Nc2cnn(Cc3ccccc3)c2N1 | 4.45 µM

Please go through the list and note GI50 for each molecule.
1. O=C1CC(c2ccc(NC(=O)Nc3ccc(Cl)c(C(F)(F)F)c3)cc2)=Nc2cn[nH]c2N1
2. COc1ccc(Cn2ncc3c2NC(=O)CC(c2cccc(NC(=O)Nc4cc(Cl)cc(Cl)c4)c2)=N3)cc1
3. Cc1cn(-c2cc(NC(=O)Nc3ccc(C4=Nc5cnn(Cc6ccccc6)c5NC(=O)C4)cc3)cc(C(F)(F)F)c2)cn1

Reply:
1. > 30 µM
2. 0.78 µM
3. > 30 µM
